Numbers sourced from patent US12257274B2.

# System: Bacillus coagulans MTCC 25235
# TEST_METHOD_NOTES: MIC of antibiotics by broth microdilution (CLSI), antibiotic resistance pattern
# Type: cell-based
# RECORDED_CONDITIONS: Heyndrickxia coagulans, MTCC25235; against Bacillus coagulans MTCC 25235, GYEA broth, 37° C., 24 h; read-out: MIC
Counter-ions that a name gives are not always drawn.

COMPOUND	UNIT_STRING	MIC
CCC[C@@H]1C[C@@H](C(=O)N[C@@H]([C@H]2O[C@H](SC)[C@H](O)[C@@H](O)[C@H]2O)[C@H](C)Cl)N(C)C1 [Clindamycin hydrochloride]	µg/mL	0.25
[H]/N=C(/N)N[C@H]1[C@H](O)[C@@H](O)[C@H](O[C@@H]2O[C@@H](C)[C@](O)(C=O)[C@H]2O[C@@H]2O[C@@H](CO)[C@H](O)[C@@H](O)[C@@H]2NC)[C@@H](N/C(N)=N\[H])[C@@H]1O [Streptomycin sulphate]	µg/mL	0.062
CC1(C)S[C@@H]2[C@H](NC(=O)[C@H](N)c3ccccc3)C(=O)N2[C@H]1C(=O)O [Ampicillin sodium salt]	µg/mL	0.125
CN(C)[C@@H]1C(O)=C(C(N)=O)C(=O)[C@@]2(O)C(O)=C3C(=O)c4c(O)cccc4[C@@](C)(O)[C@H]3C[C@@H]12 [Tetracycline hydrochloride]	µg/mL	0.03
O=C(N[C@H](CO)[C@H](O)c1ccc([N+](=O)[O-])cc1)C(Cl)Cl	µg/mL	0.031
